Please go through the items and note down their MIC.
Test system: Staphylococcus aureus
method_description: Growth inhibition of methicillin-resistant Staphylococcus aureus ATCC 43300 incubated for 18 hrs
Format: organism-based
Kindly provide the numeric value in µg/mL only, without the unit symbol.

Which MIC value is on record for CC(C)CCOc1ccccc1-c1ccccc1OCc1cn([C@H](CCCCN)C(=O)NCC2CCCCC2)nn1.Cl ?
8

Again, but for CC(C)CCOc1ccccc1-c1ccccc1OCc1cn([C@H](CCCCN)C(=O)NCc2ccc(C(F)(F)F)cc2)nn1.Cl
8

Same again, this time with CC(C)CCOc1ccc2ccccc2c1-c1c(OCc2cn([C@H](CCCNC(=N)N)C(=O)NCCc3ccccc3)nn2)ccc2ccccc12.Cl
8

// query: CC(C)CCOc1ccccc1-c1ccccc1OCc1cn([C@H](CCCNC(=N)N)C(=O)N[C@H](CCCCN)Cn2cc(CCc3ccccc3)nn2)nn1.Cl.Cl
4

Moving on to CC(C)CCOc1ccc2ccccc2c1-c1c(OCc2cn([C@H](CCCNC(=N)N)C(=O)N[C@H](CCCCN)Cn3cc(CCc4ccccc4)nn3)nn2)ccc2ccccc12.Cl.Cl
4

Also CC(C)CCOc1ccccc1-c1ccccc1OCc1cn([C@H](CCCCN)C(=O)NCCc2ccccc2)nn1.Cl , if possible.
8

One more molecule: COc1cc(NC(=O)[C@@H](CCCNC(=N)N)n2cc(COc3ccccc3-c3ccccc3OCCC(C)C)nn2)cc(OC)c1.Cl
8

Now this one: CC(C)CCOc1ccccc1-c1ccccc1OCc1cn([C@H](CCCNC(=N)N)C(=O)N[C@H](CCCCN)Cn2cc(CC3CCCCC3)nn2)nn1.Cl.Cl
8

---

Tested on: Staphylococcus aureus
method_description: Growth inhibition of methicillin-resistant Staphylococcus aureus ATCC 43300 incubated for 18 hrs
Type: organism-based
measured_property: MIC (µg/mL)
Numeric only. Scale: µg/mL

Requested read-out: MIC. Entry: CC(C)CCOc1ccccc1-c1ccccc1OCc1cn([C@H](CCCNC(=N)N)C(=O)N[C@H](CCCCN)Cn2cc(C3CCCCC3)nn2)nn1.Cl.Cl
4

And what about the compound CC(C)CCOc1ccc2ccccc2c1-c1c(OCC(=O)N[C@H](CCCNC(=N)N)C(=O)NCCc2ccc(F)cc2)ccc2ccccc12.Cl ?
4

One more compound: CC(C)CCOc1ccc2ccccc2c1-c1c(OCc2cn([C@H](CCCCN)C(=O)N[C@H](CCCNC(=N)N)C(=O)NCCc3ccccc3)nn2)ccc2ccccc12.Cl.Cl
2

Please give the result for CC(C)CCOc1ccccc1-c1ccccc1OCc1cn([C@H](CCCCN)C(=O)NCCc2ccc(F)cc2)nn1.Cl too.
8

Let us now turn to CC(C)CCOc1ccc2ccccc2c1-c1c(OCc2cn([C@H](CCCCN)C(=O)N[C@H](CCCNC(=N)N)C(=O)N3CCCCC3)nn2)ccc2ccccc12.Cl.Cl
2

# repeat for CC(C)CCOc1ccc2ccccc2c1-c1c(OCc2cn([C@H](CCCCN)C(=O)N[C@H](CCCNC(=N)N)C(=O)NCc3ccccc3)nn2)ccc2ccccc12.Cl.Cl
4

---

System: Clostridioides difficile
method_description: Antibacterial activity against Clostridium difficile ATCC 700057 incubated for 2 to 4 hrs in pre-reduced brucella broth supplemented with haemin/vitamin K and further incubation in anaerobic condition for 48 hrs
Type: functional
measured_property: MIC (µg/mL)
Give just the number in µg/mL; leave the unit off.

Form field: reported MIC of CC(C)CCOc1ccccc1-c1ccccc1OCc1cn([C@H](CCCCN)C(=O)NC2CCCCC2)nn1.Cl
16

And what about the molecule CC(C)CCOc1ccccc1-c1ccccc1OCc1cn([C@H](CCCNC(=N)N)C(=O)NC2CC2)nn1.Cl ?
64

Query CC(C)CCOc1ccccc1-c1ccccc1OCc1cn([C@H](CCCNC(=N)N)C(=O)N[C@H](CCCCN)Cn2cc(CCc3ccccc3)nn2)nn1.Cl.Cl next
16

Next molecule up: CC(C)CCOc1ccc2ccccc2c1-c1c(OCc2cn([C@H](CCCCN)C(=O)N[C@H](CCCNC(=N)N)Cn3cc(CCc4ccccc4)nn3)nn2)ccc2ccccc12.Cl.Cl
16

Same thing, different molecule: CC(C)CCOc1ccccc1-c1ccccc1OCc1cn([C@H](CCCCN)C(=O)N[C@H](CCCNC(=N)N)Cn2cc(Cc3ccccc3)nn2)nn1.Cl.Cl
8

Follow-up entry: CC(C)CCOc1ccc2ccccc2c1-c1c(OCc2cn([C@H](CCCCN)C(=O)N[C@H](CCCNC(=N)N)C(=O)NCc3ccccc3)nn2)ccc2ccccc12.Cl.Cl
16

Try this molecule next: CC(C)CCOc1ccccc1-c1ccccc1OCc1cn([C@H](CCCNC(=N)N)C(=O)NCCc2ccccc2)nn1.Cl
8
